test: qHTS assay for small molecule disruptors of the mitochondrial membrane potential (AID 720635); conditions: HepG2 mitochondrial membrane potential, Mito-MPS dye ratio; series mostly up to 83.2 µM
Records with an inconclusive call do not appear. The source made the active and inactive calls. Calls follow the shape of the dose curve; as a rule, active = well fitted inhibition curve with a large enough effect in the signal ratio in the repeat runs; inconclusive = weak or mixed curves, or effect the other way; inactive = flat fitted curve, though single readings scatter; the % refers to the signal ratio.
Labels: YES for active, NO for inactive

Compound: ClC(Cl)C(Cl)(Cl)Cl
Answer Label: NO
//
Compound: Nc1nc(N)nc(Cl)n1
Answer Label: NO
//
Compound: CC(Cc1ccc(OCC(=O)O)cc1)NCC(O)c1csc(C(F)(F)F)n1 (stereo not drawn)
Answer Label: NO
//
Compound: CN
Answer Label: NO
//
Compound: c1ccc(Nc2ccc(Nc3ccccc3)cc2)cc1
Answer Label: YES
//
Compound: O=[N+]([O-])c1ccccc1-c1ccccc1
Answer Label: NO
//
Compound: Clc1ccc(C2(Cn3cncn3)OCCO2)c(Cl)c1
Answer Label: NO
//
Compound: CCN(CC)C(=O)N[C@@H]1C=C2c3cccc4[nH]cc(c34)C[C@@H]2N(C)C1
Answer Label: YES
